assay: Bidirectional permeability in parental MDCK cells; format: in vitro ADME, Canine; details: dog, MDCK
Provide the recorded Papp A→B at 2 h, 1 μmol/L for the entries that follow.
Dear colleague, please return just the value in ×10⁻⁶ cm/s, with no unit written.

Entry under review: C[C@H]1O[C@@H](O[C@H]2[C@@H](O)C[C@H](O[C@H]3[C@@H](O)C[C@H](O[C@H]4CC[C@@]5(C)[C@H](CC[C@@H]6[C@@H]5C[C@@H](O)[C@]5(C)[C@@H](C7=CC(=O)OC7)CC[C@]65O)C4)O[C@@H]3C)O[C@@H]2C)C[C@H](O)[C@@H]1O . Reported Papp A→B at 2 h, 1 μmol/L?
2.22

Tell me the measured Papp A→B at 2 h, 1 μmol/L of CNS(=O)(=O)Cc1ccc2[nH]cc(CCN(C)C)c2c1 , please.
1.07

Can you share its Papp A→B at 2 h, 1 μmol/L? I mean this compound: NC(=O)N1c2ccccc2C=Cc2ccccc21 [Carbamazepine, carbamazepine]
34.2
